# Read-out: Monocyte Chemoattractant Protein-1 (MCP1), CCL2 (gene 6347)
# Experiment Description: BSK_3C_MCP1: BioMAP Diversity Plus: 3C Assay for Monocyte Chemoattractant Protein-1 (MCP1) Biomarker Activity (AID 2283017)
# Measurement Setup: primary human endothelial cells (HUVEC); actives raise or lower the signal
Active and inactive are the calls of the source. The calls were made as follows: active = hit-call score of the fitted dose curve at least 0.9, where 1 is the maximum; inactive = score below 0.9.
Please answer using one outcome listed in YES = active, NO = inactive

Exercise: Dear all, I need the recorded test outcome for O=C(O)C(F)(OC(F)(F)C(F)(OC(F)(F)C(F)(OC(F)(F)C(F)(F)C(F)(F)F)C(F)(F)F)C(F)(F)F)C(F)(F)F (configuration not stated) , thank you.
Key: NO

Continuing:
Exercise: Given `CCc1ccc(C(c2ccc(CC)cc2)C(Cl)Cl)cc1` , state the outcome it received in this test.
Key: YES

Exercise: Hello, I am checking results. What call was entered for `CCCCOCCOCCOC(=O)CCCCC(=O)OCCOCCOCCCC` ?
Key: NO

Exercise: Kindly provide the recorded test outcome for the following compound: `O=C(O)C(F)(F)C(F)(F)C(F)(F)C(F)(F)F`
Key: NO

###

# Experiment Description: ATG_Sox_CIS: Attagene CIS-FACTORIAL HepG2 Assay for human SRY-box transcription factor (SOX) (AID 2282960)
# Measurement Setup: HepG2 Attagene cis-factorial SOX reporter, mRNA; actives raise or lower the signal
Active and inactive are the calls of the source. Rule for the calls: active = hit-call score of the fitted dose curve at least 0.9, where 1 is the maximum; inactive = score below 0.9.
Measured Metric: outcome

Study these solved cases before continuing.
Exercise: Give the value of outcome reported for the following: `CCO[Si](CCC(F)(F)C(F)(F)C(F)(F)C(F)(F)C(F)(F)C(F)(F)F)(OCC)OCC`
Key: inactive

Exercise: Output measured outcome for this item: `C#C[C@]1(O)CC[C@H]2[C@@H]3CCc4cc(OC)ccc4[C@H]3CC[C@@]21C`
Key: inactive

Exercise: Supply outcome value. Item: `O=C(O)C(F)(F)C(F)(F)C(F)(F)C(F)(F)F`
Key: inactive

Exercise: Indicate the recorded outcome value for this molecule: `CC/C=C\CCOC(=O)c1ccccc1`
Key: inactive

***
Exercise: Supply reported outcome belonging to this molecule: FC1CC(F)(F)C(F)(F)C1(F)F (stereo not given)
Key: inactive

Exercise: Check the records and state outcome for `O=S(=O)(OCCOC(F)(F)F)C(F)(F)F`
Key: inactive

###

# Read-out: CD40, CD40 (gene 958)
# Experiment Description: BSK_SAg_CD40: BioMAP Diversity Plus: SAg Assay for CD40 Biomarker Activity (AID 2283088)
# Measurement Setup: primary human HUVEC with PBMC; actives raise or lower the signal
Calls of active or inactive are those of the source. Rule for the calls: active = hit-call score of the fitted dose curve at least 0.9, where 1 is the maximum; inactive = score below 0.9.
Reply using exactly one outcome from TRUE (active), FALSE (inactive)

Use these answered entries as a reference point.
Exercise: Dear colleague, could you share the recorded outcome for `C=CC(F)(F)C(F)(F)C(F)(F)C(F)(F)C(F)(F)C(F)(F)C(F)(F)C(F)(F)C=C` when you have a moment?
Key: FALSE

Exercise: GET /call?item= `O=S(=O)(OCC(F)F)C(F)(F)F` returns the recorded outcome of this test.
Key: FALSE

Exercise: GET /call?item= `FC(F)(F)C(F)(F)C(F)(F)C(F)(F)C(F)(F)C(F)(F)C(F)(F)C(F)(F)F` returns the recorded outcome of this test.
Key: FALSE

***
Exercise: Any idea what this test logged for `OCCCC(F)(F)C(F)(F)C(F)(F)F` ?
Key: FALSE

Exercise: Any idea what this test logged for `FC(F)(F)C(F)(F)C(F)(F)C(F)(F)C(F)(F)C(F)(F)C(F)(F)I` ?
Key: FALSE

Exercise: Hey, what did the test say about `C=C(C)C(=O)OCCC(F)(F)C(F)(F)C(F)(F)C(F)(F)C(F)(C(F)(F)F)C(F)(F)F` ?
Key: FALSE

Exercise: What is the recorded call for this molecule in the test? O=C(O)C(F)(OC(F)(F)C(F)(OC(F)(F)C(F)(OC(F)(F)C(F)(F)C(F)(F)F)C(F)(F)F)C(F)(F)F)C(F)(F)F (stereo not given)
Key: FALSE

Exercise: Test call, this molecule: `FC(F)(F)C(F)(F)C(F)(F)C(F)(F)C(F)(F)C(F)(F)C(F)(F)Br`
Key: FALSE

Exercise: What did this assay record as the result for `Nc1ccc([N+](=O)[O-])cc1O` ?
Key: FALSE

Exercise: Given `C#C[C@]1(O)CC[C@H]2[C@@H]3CCc4cc(OC)ccc4[C@H]3CC[C@@]21C` , state the outcome it received in this test.
Key: FALSE

Exercise: What is the recorded call for this molecule in the test? `CO[Si](OC)(c1ccccc1)c1ccccc1`
Key: FALSE

Exercise: Please let me know the test result on file for `CCN(CC)c1ccc2c(C)cc(=O)oc2c1` .
Key: FALSE

Exercise: Per the assay record, what outcome was assigned to `OCC(F)(F)C(F)(F)C(F)(F)C(F)(F)C(F)(F)C(F)F` ?
Key: FALSE

Exercise: GET /call?item= `CS(C)(=O)=O` returns the recorded outcome of this test.
Key: FALSE

Exercise: What classification did `FC(F)(F)C(F)(F)C(F)(F)C(F)(F)C(F)(F)C(F)(F)C(F)(F)C(F)(F)CCS` end up with in this test?
Key: FALSE

Exercise: I would be grateful if you could indicate the recorded call for `CCCCNc1ccccc1` .
Key: FALSE

Exercise: For `Oc1ccc(Nc2ccccc2)cc1` , which call appears in the assay record?
Key: TRUE

Exercise: Assay result, entry `O=P(O)(O)OCCC(F)(F)C(F)(F)C(F)(F)C(F)(F)C(F)(F)C(F)(F)F` — outcome?
Key: FALSE

Exercise: Tell me the assay call for `FC(F)(F)C(F)(F)C(F)(F)C(F)(F)C(F)(F)CCI` please.
Key: FALSE

Exercise: # fetch the recorded call for CC(CCl)OP(=O)(OC(C)CCl)OC(C)CCl (stereo not given) here
Key: FALSE

###

# Experiment Description: CCTE_Shafer_MEA_dev_active_electrodes_number: CCTE's Neural Network Formation Assay for Number of Active Electrodes, Shafer Lab (AID 2284040)
Results filed as inconclusive are left out. Calls of active or inactive are those of the source. The calls were made as follows: active = hit-call score of the fitted dose curve at least 0.9, where 1 is the maximum; inconclusive = response in the unintended direction; inactive = score below 0.9.
// classify into active, inactive

Exercise: Record lookup: outcome of this test for `OCC(F)(F)C(F)(F)C(F)(F)C(F)(F)C(F)(F)C(F)F` ?
Key: inactive

Exercise: Give the logged outcome of this assay for the following compound: `O=C(O)C(F)(F)C(F)(F)C(F)(F)C(F)(F)C(F)(F)C(F)(F)C(F)(F)C(F)(F)Cl`
Key: inactive

Consider now this further compound.
Exercise: Fill in: this test's call for `CC(C)(C)C(=O)CC(=O)C(F)(F)C(F)(F)C(F)(F)F` is ___
Key: active

###

# Experiment Description: Tanguay_ZF_120hpf_TCHR: Oregon State University Tanguay Lab 120 Hour Post-fertilization zebrafish Assay for Touch Responsive (AID 2284403)
# Protocol: Tanguay_ZF_120hpf is a whole embryo, multiplexed endpoint assay using zebrafish larvae exposed for 120 hours post fertilization on a 96-well plate.Tanguay_ZF_120hpf_TCHR is one of one assay component(s) measured or calculated from the Tanguay_ZF_120hpf assay. It is designed to make measurements of zebrafish development as detected with brightfield microscopy of developing zebrafish embryos.Data from the assay component Tanguay_ZF_120hpf_TCHR was analyzed into 1 assay endpoints. […]
The source made the active and inactive calls. The calls were made as follows: active = hit-call score of the fitted dose curve at least 0.9, where 1 is the maximum; inactive = score below 0.9.
Classes to choose from: T = active, F = inactive

Answered examples (2):
Exercise: Please state the recorded outcome for this compound: `O=C(O)C(F)(F)C(F)(F)C(F)(F)C(F)(F)C(F)(F)C(F)(F)C(F)(F)C(F)(F)C(F)(F)C(F)(F)C(F)(F)C(F)(F)F`
Key: F

Exercise: Assay result, entry `O=C(O)C(F)(F)C(F)(F)OC(F)(F)F` — outcome?
Key: F

More entries:
Exercise: Query: recorded result category for `C=CC(=O)OCC(F)(F)C(F)(F)C(F)(F)C(F)(F)C(F)(F)C(F)(F)C(F)(F)F` in this test
Key: F

Exercise: Given FC(F)(F)C(F)(F)C(F)(F)C(F)(F)C(F)(F)C(F)(F)CC1CO1 (stereo not drawn) , state the outcome it received in this test.
Key: F

Exercise: Recorded test outcome, item `O=C(O)C(F)(F)C(F)(F)F`
Key: F

Exercise: I'd appreciate the recorded outcome for `OCC(F)(F)C(F)(F)C(F)(F)C(F)(F)C(F)(F)C(F)F` from this test.
Key: F

Exercise: Dear colleague, could you share the recorded outcome for `O=C(O)C(F)(F)C(F)(F)C(F)(F)C(F)(F)C(F)(F)C(F)(F)C(F)(F)C(F)(F)Cl` when you have a moment?
Key: T

Exercise: State the result this test recorded for `CC(C)(C)C(=O)CC(=O)C(F)(F)C(F)(F)C(F)(F)F` .
Key: F

Exercise: Hi, sorry to bother you, what did the test record for `O=S(=O)(OCC(F)F)C(F)(F)F` ?
Key: F

Values were extracted from PubChem BioAssay (EPA / NIEHS).
